In this section, each of the compounds is paired with its reported normalised response.
system: HCC1599; assay: normalised response (% of control), CellTox Green; higher = less cell death (100 = DMSO, 0 = benzethonium chloride kill control); details: incubation time: 72 h
Just the number plus its unit, please.

[[record]]
compound = "CC[C@H](CO)Nc1nc(NCc2ccccc2)c2ncn(C(C)C)c2n1 [Seliciclib] (1000 nM)"
assayreadout = "normalised response"
resultvalue = "103%"

[[record]]
compound = "CC(C)(C)c1nc(-c2cccc(NS(=O)(=O)c3c(F)cccc3F)c2F)c(-c2ccnc(N)n2)s1 [Dabrafenib] (25 nM)"
assayreadout = "normalised response"
resultvalue = "93.3%"

[[record]]
compound = "CN(Cc1cnc2nc(N)nc(N)c2n1)c1ccc(C(=O)N[C@@H](CCC(=O)O)C(=O)O)cc1 [Methotrexate] (50000 nM)"
assayreadout = "normalised response"
resultvalue = "101%"

[[record]]
compound = "Cn1cc(C2=C(c3cn(C4CCN(Cc5ccccn5)CC4)c4ccccc34)C(=O)NC2=O)c2ccccc21 [Enzastaurin] (1000 nM)"
assayreadout = "normalised response"
resultvalue = "102%"

[[record]]
compound = "CCn1c(C(=O)N(C2CC2)C2CC2)cc2c3c(ncn3C)c(Nc3cc(C)n(C)n3)nc21 (1000 nM)"
assayreadout = "normalised response"
resultvalue = "89.3%"


Shift focus to the following entry.
Query string: // fetch HCC1599 normalised response for CC(C)n1cnc2c(NCCc3ccc(O)cc3)nc(-c3csc4ccccc34)nc21 [StemRegenin 1] (1000 nM)
Result string: 96%

----------
system: CAL-85-1; assay: normalised viability (% of control), CellTiter-Blue; higher = more viable cells (about 100 = DMSO control); settings: 3 nM; incubation time: 72 h
assayReadout: normalised viability (%)
Note: unit % is implicit; provide only the numeric part.

[[record]]
molecule = "CN(Cc1cnc2nc(N)nc(N)c2n1)c1ccc(C(=O)N[C@@H](CCC(=O)O)C(=O)O)cc1 [Methotrexate]"
experimentalsystem = "CAL-85-1"
assayreadout = "normalised viability"
uom = "%"
resultvalue = 98.5

[[record]]
molecule = "CC[C@H](CO)Nc1nc(NCc2ccccc2)c2ncn(C(C)C)c2n1"
experimentalsystem = "CAL-85-1"
assayreadout = "normalised viability"
uom = "%"
resultvalue = 93.3

[[record]]
molecule = "Cc1cc(Nc2nc(N[C@@H](C)c3ncc(F)cn3)ncc2Cl)[nH]n1"
experimentalsystem = "CAL-85-1"
assayreadout = "normalised viability"
uom = "%"
resultvalue = 91.4

[[record]]
molecule = "CC1(C)CCC(c2ccc(Cl)cc2)=C(CN2CCN(c3ccc(C(=O)NS(=O)(=O)c4ccc(N[C@H](CCN5CCOCC5)CSc5ccccc5)c(S(=O)(=O)C(F)(F)F)c4)cc3)CC2)C1"
experimentalsystem = "CAL-85-1"
assayreadout = "normalised viability"
uom = "%"
resultvalue = 84.1

[[record]]
molecule = "COc1c2occc2cc2ccc(=O)oc12"
experimentalsystem = "CAL-85-1"
assayreadout = "normalised viability"
uom = "%"
resultvalue = 92.9


Query string: If you can, please state the reported normalised viability value of CC(C)(C)NC(=O)[C@H]1CC[C@H]2[C@@H]3CC[C@H]4NC(=O)C=C[C@]4(C)[C@H]3CC[C@]12C [Finasteride] .
Result string: 100

Query string: If you can, please state the reported normalised viability value of CC(=O)[C@]1(O)Cc2c(O)c3c(c(O)c2[C@@H](O[C@H]2C[C@H](N)[C@H](O)[C@H](C)O2)C1)C(=O)c1ccccc1C3=O .
Result string: 91.9

Query string: If you can, please state the reported normalised viability value of CNC(=O)c1ccccc1Sc1ccc2c(/C=C/c3ccccn3)n[nH]c2c1 .
Result string: 93

Query string: If you can, please state the reported normalised viability value of C=CCn1c(=O)c2cnc(Nc3ccc(N4CCN(C)CC4)cc3)nc2n1-c1cccc(C(C)(C)O)n1 .
Result string: 79.6
